Target: UniProtKB P32245
Test: High and low density hMC4-R functional assay (cAMP, HEK293-T-REx-MC4-R cells)
Assay type: cell-based
Settings: 0.1 ng/mL Doxycycline (low density hMC4-R system); NDP-α-MSH = 100%; read-out: Intrinsic Activity (%)
Emax reference
reported metric: Emax (%)

smiles data: CC(=O)NCC[C@@H]1NC(=O)[C@@H](NC(=O)[C@H](CCCNC(=N)N)NC(C)=O)CCC(=O)NCCC[C@@H](C(N)=O)NC(=O)[C@H](Cc2c[nH]c3ccccc23)NC(=O)[C@H](CCCNC(=N)N)NC(=O)[C@@H](Cc2ccccc2Cl)NC1=O
assay target: UniProtKB P32245
recorded number: 41
//
smiles data: CC(=O)N[C@@H](CCCNC(=N)N)C(=O)N[C@H]1CC(=O)NCCCC[C@@H](C(N)=O)NC(=O)[C@H](Cc2c[nH]c3ccccc23)NC(=O)[C@H](CCCNC(=N)N)NC(=O)[C@@H](Cc2ccc(F)cc2)NC(=O)[C@@H]2CCCN2C1=O
assay target: UniProtKB P32245
recorded number: 32
//
smiles data: CC(=O)N[C@@H](CCCNC(=N)N)C(=O)N[C@H]1CCC(=O)NCCC[C@@H](C(N)=O)NC(=O)[C@H](Cc2c[nH]c3ccccc23)NC(=O)[C@H](CCCNC(=N)N)NC(=O)[C@@H](Cc2ccccc2Cl)NC(=O)[C@H]([C@@H](C)O)NC1=O
assay target: UniProtKB P32245
recorded number: 34
//
smiles data: CC(=O)N[C@@H](CCCNC(=N)N)C(=O)N[C@H]1CCC(=O)NCCC[C@@H](C(N)=O)NC(=O)[C@H](Cc2c[nH]c3ccccc23)NC(=O)[C@H](CCCNC(=N)N)NC(=O)[C@@H](Cc2ccc(C#N)cc2)NC(=O)[C@H]([C@@H](C)O)NC1=O
assay target: UniProtKB P32245
recorded number: 22

----------
Molecular target: hMC4-R (Homo sapiens (Human), UniProt P32245)
Sequence (P32245 whole entry): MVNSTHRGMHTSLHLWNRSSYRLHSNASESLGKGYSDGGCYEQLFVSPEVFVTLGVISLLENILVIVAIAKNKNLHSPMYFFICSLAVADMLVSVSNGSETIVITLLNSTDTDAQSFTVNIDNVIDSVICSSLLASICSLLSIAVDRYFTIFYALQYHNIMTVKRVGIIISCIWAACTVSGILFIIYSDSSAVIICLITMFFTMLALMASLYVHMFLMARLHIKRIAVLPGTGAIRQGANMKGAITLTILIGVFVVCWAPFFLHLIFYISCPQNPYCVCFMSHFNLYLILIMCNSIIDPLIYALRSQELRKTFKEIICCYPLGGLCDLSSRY
Experiment: High and low density hMC4-R functional assay (cAMP, HEK293-T-REx-MC4-R cells)
Type: cell-based
Conditions: 0.1 ng/mL Doxycycline (low density hMC4-R system)
Positions of bridges follow the written chain, without caps; N, C: chain ends. Non-standard residues stand in square brackets, D forms with d. Residues, ends and D or L forms follow the SMILES beside them. dPhe(3-Cl) = N[C@H](Cc1cccc(Cl)c1)C(=O)O; Orn = NCCC[C@H](N)C(=O)O
EC50 reference
reported metric: EC50 (nM)

molecule: CC(=O)N[C@@H](CCCNC(=N)N)C(=O)N[C@H]1CCC(=O)NCCC[C@@H](C(N)=O)NC(=O)[C@H](Cc2c[nH]c3ccccc23)NC(=O)[C@H](CCCNC(=N)N)NC(=O)[C@@H](Cc2cc(F)c(F)c(F)c2)NC(=O)[C@H](CC(N)=O)NC1=O [Example 95]
reported metric: EC50
unit info: nM
recorded number: 1

molecule: CC(=O)N[C@@H](CCCNC(=N)N)C(=O)N[C@H]1CCC(=O)NCCC[C@@H](C(N)=O)NC(=O)[C@H](Cc2c[nH]c3ccccc23)NC(=O)[C@H](CCCNC(=N)N)NC(=O)[C@@H](Cc2cccc(Cl)c2)NC(=O)[C@H](CCCCN)NC1=O [Example 100] (Ac-REK[dPhe(3-Cl)]RW[Orn]-NH2; lactam 2-7)
reported metric: EC50
unit info: nM
recorded number: 6

Measured values drawn from patent US9040663B2 for this set.
